src = BindingDB's records for doi:10.1074/jbc.M110.107094

test_target: Matrix metalloproteinase-9 (Homo sapiens)
Sequence (P14780 whole entry): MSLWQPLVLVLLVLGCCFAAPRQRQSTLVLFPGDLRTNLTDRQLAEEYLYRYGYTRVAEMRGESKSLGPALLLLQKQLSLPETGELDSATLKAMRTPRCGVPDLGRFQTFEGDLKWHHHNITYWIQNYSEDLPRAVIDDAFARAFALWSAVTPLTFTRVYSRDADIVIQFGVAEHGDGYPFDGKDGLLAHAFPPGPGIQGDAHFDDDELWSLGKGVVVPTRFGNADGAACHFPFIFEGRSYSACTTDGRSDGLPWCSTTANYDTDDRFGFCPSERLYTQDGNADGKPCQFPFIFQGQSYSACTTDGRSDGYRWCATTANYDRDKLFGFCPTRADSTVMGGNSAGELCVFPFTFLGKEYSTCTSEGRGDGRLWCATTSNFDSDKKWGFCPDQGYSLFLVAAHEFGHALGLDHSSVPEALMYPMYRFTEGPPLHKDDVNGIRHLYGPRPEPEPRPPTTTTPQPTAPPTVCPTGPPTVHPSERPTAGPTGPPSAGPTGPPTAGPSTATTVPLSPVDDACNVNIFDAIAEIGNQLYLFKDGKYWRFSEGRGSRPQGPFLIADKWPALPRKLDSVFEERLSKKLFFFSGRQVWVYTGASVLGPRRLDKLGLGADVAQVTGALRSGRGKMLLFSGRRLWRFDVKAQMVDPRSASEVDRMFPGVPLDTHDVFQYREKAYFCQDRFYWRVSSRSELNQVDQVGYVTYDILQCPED
measurement_label: IC50

Query string: Look up IC50 with Matrix metalloproteinase-9 (Homo sapiens) for this compound: O=C(CCS(=O)(=O)c1ccccc1)NO
Result string: > 50 µM

* * *

test_target: 72 kDa type IV collagenase (Homo sapiens, UniProt P08253)
Sequence (P08253 whole entry): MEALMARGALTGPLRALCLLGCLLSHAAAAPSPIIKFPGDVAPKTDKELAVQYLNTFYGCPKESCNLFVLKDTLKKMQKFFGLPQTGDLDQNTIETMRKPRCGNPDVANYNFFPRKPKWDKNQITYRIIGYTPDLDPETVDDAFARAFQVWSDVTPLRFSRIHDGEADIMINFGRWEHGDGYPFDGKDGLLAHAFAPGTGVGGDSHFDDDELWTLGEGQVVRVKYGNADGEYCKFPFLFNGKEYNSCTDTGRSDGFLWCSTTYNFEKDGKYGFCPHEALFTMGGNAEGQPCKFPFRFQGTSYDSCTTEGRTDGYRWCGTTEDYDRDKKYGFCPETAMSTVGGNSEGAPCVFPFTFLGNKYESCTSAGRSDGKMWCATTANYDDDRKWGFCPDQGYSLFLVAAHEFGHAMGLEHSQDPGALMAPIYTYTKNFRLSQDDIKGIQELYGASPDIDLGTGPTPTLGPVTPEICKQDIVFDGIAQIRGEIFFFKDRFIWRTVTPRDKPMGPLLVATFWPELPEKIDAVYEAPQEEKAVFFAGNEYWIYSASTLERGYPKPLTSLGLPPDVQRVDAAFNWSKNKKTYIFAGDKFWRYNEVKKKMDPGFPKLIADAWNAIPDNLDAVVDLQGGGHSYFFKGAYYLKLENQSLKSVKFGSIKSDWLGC
measurement_label: IC50

Query string: IC50 for CCOc1ccc(-c2ccccc2C(=O)NO)cc1 [BI-102C8] ?
Result string: > 100 µM

* * *

test_target: Matrix metalloproteinase-14 [1-20,P8S] (Homo sapiens, UniProt P50281, P8S)
Construct: 1-20
run_description: Inhibition Assay
conditions: 37 °C
Excerpt: Inhibition of IC50 using matrix metalloproteinase.
measurement_label: IC50 (µM)
Numbers only here, please. The scale is µM.

Query string: Look up IC50 with Matrix metalloproteinase-14 [1-20,P8S] (Homo sapiens, UniProt P50281, P8S) for this compound: O=C(CCS(=O)(=O)c1ccccc1)NO
Result string: 10.9
